OBSERVABLE: melting point

The cases that follow already have their melting point on record.
{"MOLECULE": "O=C1CCC(N2Cc3cc(CNC(=O)Nc4ccc(-c5ncc[nH]5)cc4)ccc3C2=O)C(=O)N1 (stereo not drawn) [Example 5.31]", "MEASUREMENT": "190 to 192 °C"}
{"MOLECULE": "CC(C)(C)OC(=O)N1CCc2cc(NC(=O)NCc3ccc4c(c3)CN(C3CCC(=O)NC3=O)C4=O)ccc2C1 (stereo not drawn) [Example 5.46]", "MEASUREMENT": "230 to 232 °C"}
{"MOLECULE": "Cc1ccc(NC(=N)NCc2ccc3c(c2)CN(C2CCC(=O)NC2=O)C3=O)cc1Cl.Cl (stereo not drawn)", "MEASUREMENT": "> 400 °C"}
{"MOLECULE": "CC(NC(=O)NCc1ccc2c(c1)CN(C1CCC(=O)NC1=O)C2=O)c1ccc(Cl)c(Cl)c1 (stereo not drawn) [Example 5.60]", "MEASUREMENT": "200 to 202 °C"}
{"MOLECULE": "Cc1ccc(N/C(=N\\C#N)NCc2ccc3c(c2)CN(C2CCC(=O)NC2=O)C3=O)cc1Cl (stereo not drawn) [Example 5.30]", "MEASUREMENT": "325 to 327 °C"}

Ask | Name the reported melting point value associated with the molecule NC(=O)[C@H]1CC[C@@H](NC(=O)NCc2ccc3c(c2)CN(C2CCC(=O)NC2=O)C3=O)CC1 (stereo partly drawn) [Example 5.43]
Reply | 195 to 197 °C

Ask | Quick one: COCCOCCOc1ccc(NC(=O)NCc2ccc3c(c2)CN(C2CCC(=O)NC2=O)C3=O)cc1Cl (stereo not drawn) [Example 5.61]
Reply | 188 to 190 °C

Ask | Quick one: O=C1CCC(N2Cc3cc(CNC(=O)Nc4ccc(Cl)c(-c5nc6ccccc6[nH]5)c4)ccc3C2=O)C(=O)N1 (stereo not drawn) [Example 5.32]
Reply | 275 to 277 °C

Ask | Quick one: CC(=O)Nc1ccc(NC(=O)NCc2ccc3c(c2)CN(C2CCC(=O)NC2=O)C3=O)cc1 (stereo not drawn) [Example 5.13]
Reply | 265 to 267 °C
